Below, each of the compounds is paired with its reported IC50 value.
Assay: Inhibition of Mycobacterium tuberculosis uracil-DNA glycosylase by fluorescence based assay
State just the number; it will be interpreted in mM.

See these solved cases before continuing.
> print(dat)
                                   compound  reported.value
1  O=C(Nc1c[nH]c(=O)[nH]c1=O)c1cccc(N2C(=O)CCC2=O)c1            2.12
2  COc1ccc(C(=O)Nc2c[nH]c(=O)[nH]c2=O)cc1[N+](=O)[O-]            15.3
3  CCC(C)(C)C(=O)O[C@H]1C[C@@H](C)C=C2C=C[C@H](C)[C@H](CC[C@@H]3C[C@@H](O)CC(=O)O3)[C@H]21 [SIMVASTATIN]            1.04

IN: // returns reported IC50 for input CC(C)(C)[C@H](COc1ccccc1F)NC(=O)c1nc(=O)[nH][nH]1
OUT: 11.3

IN: // returns reported IC50 for input O=c1cc(Nc2ccc(N3CCCCC3)cc2)[nH]c(=O)[nH]1
OUT: 0.8

IN: // returns reported IC50 for input Cc1ccc(-c2csc3c(=O)n(CC#N)cnc23)cc1
OUT: 7.93

Data origin, for the record: ChEMBL document CHEMBL5236574
